Cited source for all entries: ChEMBL document CHEMBL1144846

Measured Ratio Ki accompanies every entry in the list below.
- Species on record: Homo sapiens
- method: Selectivity for human recombinant kappa opioid receptor over human recombinant delta opioid receptor
attribute.measured: Ratio Ki

compound | attribute.measured | limit.qualifier | result.value
COC(=O)[C@@H]1C[C@H](NC(=O)c2ccccc2)C(=O)[C@H]2[C@@]1(C)CC[C@H]1C(=O)O[C@H](c3ccoc3)C[C@]21C | Ratio Ki | = | 0.11
COC(=O)[C@@H]1C[C@H](OC(=O)c2cccc(Br)c2)C(=O)[C@H]2[C@@]1(C)CC[C@H]1C(=O)O[C@H](c3ccoc3)C[C@]21C | Ratio Ki | > | 100
COC(=O)[C@@H]1C[C@H](OC(=O)c2ccsc2)C(=O)[C@H]2[C@@]1(C)CC[C@H]1C(=O)O[C@H](c3ccoc3)C[C@]21C | Ratio Ki | = | 9
COC(=O)[C@@H]1C[C@H](OC(=O)c2ccc([N+](=O)[O-])cc2)C(=O)[C@H]2[C@@]1(C)CC[C@H]1C(=O)O[C@H](c3ccoc3)C[C@]21C | Ratio Ki | = | 0.45
COC(=O)[C@@H]1C[C@H](OC(=O)c2ccccc2OC)C(=O)[C@H]2[C@@]1(C)CC[C@H]1C(=O)O[C@H](c3ccoc3)C[C@]21C | Ratio Ki | > | 43
COC(=O)[C@@H]1C[C@H](OC(=O)c2ccc3ccccc3c2)C(=O)[C@H]2[C@@]1(C)CC[C@H]1C(=O)O[C@H](c3ccoc3)C[C@]21C | Ratio Ki | > | 2

---

- system.under.test: Delta-type opioid receptor (Homo sapiens, UniProt P41143)
- Sequence (P41143 whole entry): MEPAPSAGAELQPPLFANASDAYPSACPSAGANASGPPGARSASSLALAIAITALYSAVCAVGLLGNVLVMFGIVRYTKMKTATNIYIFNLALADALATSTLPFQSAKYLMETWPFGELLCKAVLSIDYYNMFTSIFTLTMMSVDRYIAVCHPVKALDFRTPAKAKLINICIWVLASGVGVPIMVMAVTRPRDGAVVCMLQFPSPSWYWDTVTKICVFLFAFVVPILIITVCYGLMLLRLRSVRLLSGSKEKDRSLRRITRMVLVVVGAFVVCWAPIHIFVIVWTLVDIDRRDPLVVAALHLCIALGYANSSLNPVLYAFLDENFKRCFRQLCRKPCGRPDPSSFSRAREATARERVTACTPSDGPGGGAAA
- method: Displacement of [125I]IOXY from human recombinant delta opioid receptor expressed in CHO cells
pKi: −log10 of the molar value.
pKi values by entry
attribute.measured: pKi

compound | system.under.test | limit.qualifier | result.value
COC(=O)[C@@H]1C[C@H](OC(=O)c2ccsc2)C(=O)[C@H]2[C@@]1(C)CC[C@H]1C(=O)O[C@H](c3ccoc3)C[C@]21C | Delta-type opioid receptor (Homo sapiens, UniProt P41143) | = | 6.16
COC(=O)[C@@H]1C[C@H](SC(=O)c2ccccc2)C(=O)[C@H]2[C@@]1(C)CC[C@H]1C(=O)O[C@H](c3ccoc3)C[C@]21C | Delta-type opioid receptor (Homo sapiens, UniProt P41143) | = | 5.71
COC(=O)[C@@H]1C[C@H](OC(=O)c2ccccc2OC)C(=O)[C@H]2[C@@]1(C)CC[C@H]1C(=O)O[C@H](c3ccoc3)C[C@]21C | Delta-type opioid receptor (Homo sapiens, UniProt P41143) | < | 5.00

---

- system.under.test: Kappa-type opioid receptor (Homo sapiens, UniProt P41145)
- Sequence (P41145 whole entry): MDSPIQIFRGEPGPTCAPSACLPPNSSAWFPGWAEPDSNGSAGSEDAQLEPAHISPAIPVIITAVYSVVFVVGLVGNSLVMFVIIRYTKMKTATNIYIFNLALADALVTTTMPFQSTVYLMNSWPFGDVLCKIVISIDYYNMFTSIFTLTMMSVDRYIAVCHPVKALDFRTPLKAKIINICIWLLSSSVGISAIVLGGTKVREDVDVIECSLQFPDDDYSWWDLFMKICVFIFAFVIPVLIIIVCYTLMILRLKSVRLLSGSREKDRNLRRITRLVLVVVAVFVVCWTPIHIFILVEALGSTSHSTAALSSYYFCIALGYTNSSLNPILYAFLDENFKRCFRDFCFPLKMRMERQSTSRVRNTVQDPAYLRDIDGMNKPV
- method: Displacement of [125I]IOXY from human recombinant kappa opioid receptor expressed in CHO cells
Rule: measured Ki below 500 nM gets TRUE; anything equal to or greater than 500 nM gets FALSE.

compound | label.class
COC(=O)[C@@H]1C[C@H](NS(C)(=O)=O)C(=O)[C@H]2[C@@]1(C)CC[C@H]1C(=O)O[C@H](c3ccoc3)C[C@]21C | TRUE
COC(=O)[C@@H]1C[C@H](OC(=O)C2CCCCC2)C(=O)[C@H]2[C@@]1(C)CC[C@H]1C(=O)O[C@H](c3ccoc3)C[C@]21C | FALSE
COC(=O)[C@@H]1C[C@H](OC(=O)c2cccc([N+](=O)[O-])c2)C(=O)[C@H]2[C@@]1(C)CC[C@H]1C(=O)O[C@H](c3ccoc3)C[C@]21C | FALSE
COC(=O)[C@@H]1C[C@H](SC(=O)c2ccccc2)C(=O)[C@H]2[C@@]1(C)CC[C@H]1C(=O)O[C@H](c3ccoc3)C[C@]21C | FALSE
COC(=O)[C@@H]1C[C@H](OC(=O)c2cc3ccccc3o2)C(=O)[C@H]2[C@@]1(C)CC[C@H]1C(=O)O[C@H](c3ccoc3)C[C@]21C | TRUE
COC(=O)[C@@H]1C[C@H](OC(=O)c2ccc(OC)cc2)C(=O)[C@H]2[C@@]1(C)CC[C@H]1C(=O)O[C@H](c3ccoc3)C[C@]21C | FALSE
COC(=O)[C@@H]1C[C@H](NC(=O)c2ccccc2)C(=O)[C@H]2[C@@]1(C)CC[C@H]1C(=O)O[C@H](c3ccoc3)C[C@]21C | FALSE
COC(=O)[C@@H]1C[C@H](NS(=O)(=O)c2ccccc2)C(=O)[C@H]2[C@@]1(C)CC[C@H]1C(=O)O[C@H](c3ccoc3)C[C@]21C | FALSE
COC(=O)[C@@H]1C[C@H](OC(=O)c2ccsc2)C(=O)[C@H]2[C@@]1(C)CC[C@H]1C(=O)O[C@H](c3ccoc3)C[C@]21C | TRUE
COC(=O)[C@@H]1C[C@H](OC(=O)c2ccccc2[N+](=O)[O-])C(=O)[C@H]2[C@@]1(C)CC[C@H]1C(=O)O[C@H](c3ccoc3)C[C@]21C | FALSE

---

- system.under.test: Mu-type opioid receptor (Homo sapiens)
- Sequence (P35372 whole entry): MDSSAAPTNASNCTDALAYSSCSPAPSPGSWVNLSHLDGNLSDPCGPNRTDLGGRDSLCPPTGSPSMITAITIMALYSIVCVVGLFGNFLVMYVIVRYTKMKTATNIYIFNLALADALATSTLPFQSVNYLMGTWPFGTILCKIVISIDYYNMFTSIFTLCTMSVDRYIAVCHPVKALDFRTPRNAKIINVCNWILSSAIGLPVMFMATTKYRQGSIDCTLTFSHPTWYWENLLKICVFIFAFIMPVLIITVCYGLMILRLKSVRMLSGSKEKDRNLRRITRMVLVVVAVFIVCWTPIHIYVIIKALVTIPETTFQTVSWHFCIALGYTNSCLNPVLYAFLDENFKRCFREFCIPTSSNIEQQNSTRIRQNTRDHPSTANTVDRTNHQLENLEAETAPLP
- method: Agonist activity at human recombinant mu opioid receptor expressed in CHO cells by [35S]GTP-gamma-S binding assay
pEC50: −log10 of the molar value.
Examples of molecules with documented pEC50 follow.

compound | pEC50
COC(=O)[C@@H]1C[C@H](OC(=O)c2ccc([N+](=O)[O-])cc2)C(=O)[C@H]2[C@@]1(C)CC[C@H]1C(=O)O[C@H](c3ccoc3)C[C@]21C | 5.86
COC(=O)[C@@H]1C[C@H](OC(=O)c2cc3ccccc3o2)C(=O)[C@H]2[C@@]1(C)CC[C@H]1C(=O)O[C@H](c3ccoc3)C[C@]21C | 5.77
COC(=O)[C@@H]1C[C@H](NC(=O)c2ccccc2)C(=O)[C@H]2[C@@]1(C)CC[C@H]1C(=O)O[C@H](c3ccoc3)C[C@]21C | 6.44
COC(=O)[C@@H]1C[C@H](OC(=O)c2cccc(OC)c2)C(=O)[C@H]2[C@@]1(C)CC[C@H]1C(=O)O[C@H](c3ccoc3)C[C@]21C | 5.78
COC(=O)[C@@H]1C[C@H](OC(=O)c2ccc(OC)cc2)C(=O)[C@H]2[C@@]1(C)CC[C@H]1C(=O)O[C@H](c3ccoc3)C[C@]21C | 6.08
COC(=O)[C@@H]1C[C@H](OC(=O)c2cccs2)C(=O)[C@H]2[C@@]1(C)CC[C@H]1C(=O)O[C@H](c3ccoc3)C[C@]21C | 5.94
COC(=O)[C@@H]1C[C@H](OC(=O)c2ccc(Br)cc2)C(=O)[C@H]2[C@@]1(C)CC[C@H]1C(=O)O[C@H](c3ccoc3)C[C@]21C | 5.31
COC(=O)[C@@H]1C[C@H](OC(=O)c2ccsc2)C(=O)[C@H]2[C@@]1(C)CC[C@H]1C(=O)O[C@H](c3ccoc3)C[C@]21C | 6.16

---

- Species on record: Homo sapiens
- method: Selectivity for human recombinant kappa opioid receptor over human recombinant mu opioid receptor
Label False if Ratio Ki falls below 0.1; label True in every other case.

compound | label.class
COC(=O)[C@@H]1C[C@H](OC(=O)c2cc3ccccc3o2)C(=O)[C@H]2[C@@]1(C)CC[C@H]1C(=O)O[C@H](c3ccoc3)C[C@]21C | True
COC(=O)[C@@H]1C[C@H](NC(=O)c2ccccc2)C(=O)[C@H]2[C@@]1(C)CC[C@H]1C(=O)O[C@H](c3ccoc3)C[C@]21C | False
COC(=O)[C@@H]1C[C@H](OC(=O)c2cccc([N+](=O)[O-])c2)C(=O)[C@H]2[C@@]1(C)CC[C@H]1C(=O)O[C@H](c3ccoc3)C[C@]21C | True
COC(=O)[C@@H]1C[C@H](OC(=O)c2cccc(OC)c2)C(=O)[C@H]2[C@@]1(C)CC[C@H]1C(=O)O[C@H](c3ccoc3)C[C@]21C | False
COC(=O)[C@@H]1C[C@H](OC(=O)c2ccccc2[N+](=O)[O-])C(=O)[C@H]2[C@@]1(C)CC[C@H]1C(=O)O[C@H](c3ccoc3)C[C@]21C | True
COC(=O)[C@@H]1C[C@H](OC(=O)c2cccc3ccccc23)C(=O)[C@H]2[C@@]1(C)CC[C@H]1C(=O)O[C@H](c3ccoc3)C[C@]21C | True
COC(=O)[C@@H]1C[C@H](OC(=O)c2ccc([N+](=O)[O-])cc2)C(=O)[C@H]2[C@@]1(C)CC[C@H]1C(=O)O[C@H](c3ccoc3)C[C@]21C | True
COC(=O)[C@@H]1C[C@H](NS(=O)(=O)c2ccccc2)C(=O)[C@H]2[C@@]1(C)CC[C@H]1C(=O)O[C@H](c3ccoc3)C[C@]21C | True
COC(=O)[C@@H]1C[C@H](OC(=O)c2cccs2)C(=O)[C@H]2[C@@]1(C)CC[C@H]1C(=O)O[C@H](c3ccoc3)C[C@]21C | False
COC(=O)[C@@H]1C[C@H](OC(=O)c2ccsc2)C(=O)[C@H]2[C@@]1(C)CC[C@H]1C(=O)O[C@H](c3ccoc3)C[C@]21C | True
COC(=O)[C@@H]1C[C@H](OC(=O)c2ccc(Br)cc2)C(=O)[C@H]2[C@@]1(C)CC[C@H]1C(=O)O[C@H](c3ccoc3)C[C@]21C | False
COC(=O)[C@@H]1C[C@H](OC(=O)c2ccccc2OC)C(=O)[C@H]2[C@@]1(C)CC[C@H]1C(=O)O[C@H](c3ccoc3)C[C@]21C | True
